IC50 for assorted compounds
Test system: MDA-MB-436 cells
method-summary: RealTime-Glo MT cell viability (cytotoxicity) assay
Type: cell-based, human
assay-conditions: Homo sapiens, MDA-MB-436, 48 h, MDA-MB-436; 48 h
experimental-readout: IC50 (µM)

compound	experimental-readout	reading-unit	reported-result
CC(C)/C=C/c1c(O)cc(/C=C/c2ccc(O)c(O)c2)cc1O	IC50	µM	6.2
CC(C)/C=C/c1c(O)cc(/C=C/c2ccc(O)cc2)cc1O	IC50	µM	16.7
Oc1ccc(/C=C/c2cc(O)cc(O)c2)cc1 [RES, resveratrol, reference compound]	IC50	µM	23.7

* * *

Tested on: MDA-MB-231 cells
method-summary: RealTime-Glo MT cell viability (cytotoxicity) assay
Assay type: cell-based, human
assay-conditions: Homo sapiens, MDA-MB-231, 72 h, MDA-MB-231; 72 h; in Figure 2 panels

entry-smiles	reading-unit	IC50
CC(C)/C=C/c1c(O)cc(/C=C/c2ccc(O)c(O)c2)cc1O	nM	2510

* * *

Tested on: MDA-MB-436 cells
method-summary: RealTime-Glo MT cell viability (cytotoxicity) assay
Assay type: cell-based, human
assay-conditions: Homo sapiens, MDA-MB-436, 24 h, MDA-MB-436; 24 h; in Figure 2 panels
Listing of recorded IC50 by entry.
experimental-readout: IC50 (µM)

molecule	reported-result
CC(C)/C=C/c1c(O)cc(/C=C/c2ccc(O)cc2)cc1O	10.9
Oc1ccc(/C=C/c2cc(O)cc(O)c2)cc1 [RES, resveratrol, reference compound]	9.16
CC(C)/C=C/c1c(O)cc(/C=C/c2ccc(O)c(O)c2)cc1O	1.62

* * *

System: MDA-MB-436 cells
method-summary: RealTime-Glo MT cell viability (cytotoxicity) assay
Assay type: cell-based, human
assay-conditions: MDA-MB-436; 72 h
pIC50: −log10 of the molar value.
experimental-readout: pIC50

entry-smiles	reported-result
CC(C)/C=C/c1c(O)cc(/C=C/c2ccc(O)cc2)cc1O	4.70
